- MEASUREMENT_PROTOCOL: PK sampling and analysis after a single oral dose of ST7612AA1 (plasma, LC-MS/MS)
- Assay type: in vivo, CD1 mice
- RUN_PARAMETERS: male, CD1 nude, mouse; ST7464AA1 in plasma; single oral dose of 120 mg/kg of ST7612AA1; read-out: Vz/F
ENDPOINT_NAME: Vd/F (L/kg)
Numbers only, in L/kg.

Inquiry: Which value of Vd/F has been reported for O=C1CC[C@H](C(=O)N[C@@H](CCCCCS)C(=O)Nc2ccccc2)N1 [ST7464AA1] in the records?
Reply text: 119

---

- MEASUREMENT_PROTOCOL: PK sampling and analysis after a single oral dose of ST7612AA1 (plasma, LC-MS/MS)
- Assay type: in vivo, CD1 mice
- RUN_PARAMETERS: male, CD1 nude, mouse; ST7464AA1 in plasma; single oral dose of 120 mg/kg of ST7612AA1; mean ± SEM
ENDPOINT_NAME: AUC(0-t) (ng·h/mL)
One number for each entry, in ng·h/mL.

Inquiry: Which value of AUC(0-t) has been reported for O=C1CC[C@H](C(=O)N[C@@H](CCCCCS)C(=O)Nc2ccccc2)N1 in the records?
Reply text: 3750

---

- Test system: Breast cancer MDA-MB231
- MEASUREMENT_PROTOCOL: In vitro proliferation assay (sulphorodamine B)
- Assay type: cell-based
- RUN_PARAMETERS: Homo sapiens, MDA-MB-231, 72 h, mean ± S.E.M.
ENDPOINT_NAME: IC50 (nM)
Numbers only, in nM.

Inquiry: Which value of IC50 has been reported for CC(=O)SCCCCC[C@H](NC(=O)[C@H]1CCC(=O)N1)C(=O)Nc1ccccc1 in the records?
Reply text: 230

---

- Test system: Mantle cell lymphoma MAVER1
- MEASUREMENT_PROTOCOL: In vitro proliferation assay (MTT)
- Type: cell-based
- RUN_PARAMETERS: Homo sapiens, 72 h, mean ± S.E.M.
ENDPOINT_NAME: IC50 (µM)
Give bare numbers, in µM.

Inquiry: Which value of IC50 has been reported for CC(=O)SCCCCC[C@H](NC(=O)[C@H]1CCC(=O)N1)C(=O)Nc1ccccc1 in the records?
Reply text: 0.39

---

- MEASUREMENT_PROTOCOL: PK sampling and analysis after a single oral dose of ST7612AA1 (plasma, LC-MS/MS)
- Format: in vivo, CD1 mice
- RUN_PARAMETERS: male, CD1 nude, mouse; ST7464AA1 in plasma; single oral dose of 120 mg/kg of ST7612AA1
ENDPOINT_NAME: Tmax

Inquiry: Which value of Tmax has been reported for O=C1CC[C@H](C(=O)N[C@@H](CCCCCS)C(=O)Nc2ccccc2)N1 in the records?
Reply text: 30 min

---

- Test system: GCB-DLBCL OCI-Ly8
- MEASUREMENT_PROTOCOL: In vitro proliferation assay (MTT)
- Type: cell-based
- RUN_PARAMETERS: Homo sapiens, 72 h, mean ± S.E.M.
ENDPOINT_NAME: IC50 (nM)
Numbers only, in nM.

Inquiry: Reported IC50 for GCB-DLBCL OCI-Ly8, given CC(=O)SCCCCC[C@H](NC(=O)[C@H]1CCC(=O)N1)C(=O)Nc1ccccc1 ?
Reply text: 240

---

- System: Splenic marginal zone lymphoma VL51
- MEASUREMENT_PROTOCOL: In vitro proliferation assay (MTT)
- Type: cell-based
- RUN_PARAMETERS: Homo sapiens, 72 h, mean ± S.E.M.
ENDPOINT_NAME: pIC50
Numbers only, as −log10 of the molar value.

Inquiry: Reported pIC50 for Splenic marginal zone lymphoma VL51, given CC(=O)SCCCCC[C@H](NC(=O)[C@H]1CCC(=O)N1)C(=O)Nc1ccccc1 [ST7612AA1] ?
Reply text: 6.92
